Hello, the source for this data is ChEMBL document CHEMBL4725371, in case you need it.

- System: MIA PaCa-2
- protocol.summary: Cytotoxicity against human MIA PaCa-2 cells measured after 72 hrs by MTT assay
- Assay type: functional, cell-based
- reported.conditions: MIA PaCa-2, 72 h
readout.kind: pIC50
Scale explanation: pIC50 corresponds to minus log10 of a concentration expressed in moles per litre.

## Task Identify the reported pIC50 for the following entry. O=C1C(Nc2ccc(-c3ccc(Cl)cc3)cc2)=CC(=O)c2ncncc21
## Result 5.01

## Task Identify the reported pIC50 for the following entry. CC1=C(Nc2ccc(N3CCN(C)CC3)cc2)C(=O)c2cncnc2C1=O
## Result 5.44

## Task Identify the reported pIC50 for the following entry. CN1CCN(c2ccc(NC3=CC(=O)c4ncncc4C3=O)cc2)CC1
## Result 6.19

## Task Identify the reported pIC50 for the following entry. O=C1C(Nc2ccc(-c3cc(Cl)cc(Cl)c3)cc2)=CC(=O)c2ncncc21
## Result 5.51

## Task Identify the reported pIC50 for the following entry. O=C1C(Nc2ccc(-c3ccccn3)cc2)=CC(=O)c2ncncc21
## Result 5.70

---
## Task Identify the reported pIC50 for the following entry. O=C1C(Nc2ccc(N3CCCCC3)cc2)=CC(=O)c2ncncc21
## Result 5.62

## Task Identify the reported pIC50 for the following entry. O=C1C(Nc2cccc(-c3ccccc3)c2)=CC(=O)c2ncncc21
## Result 5.62

## Task Identify the reported pIC50 for the following entry. O=C1C(Nc2ccc3c(c2)Cc2ccccc2-3)=CC(=O)c2ncncc21
## Result 5.66

## Task Identify the reported pIC50 for the following entry. O=C1C(Nc2ccc(C3CCCCC3)cc2)=CC(=O)c2ncncc21
## Result 5.92

## Task Identify the reported pIC50 for the following entry. O=C1C(Nc2ccc(N3CCOCC3)cc2)=CC(=O)c2ncncc21
## Result 5.82

## Task Identify the reported pIC50 for the following entry. O=C1C(Nc2cccc3c2Cc2ccccc2-3)=CC(=O)c2ncncc21
## Result 5.51

## Task Identify the reported pIC50 for the following entry. CCc1ccc(-c2ccc(NC3=CC(=O)c4ncncc4C3=O)cc2)cc1
## Result 5.82

* * *

Recorded concentration at 7 h, one value per entry.
- protocol.summary: Plasma concentration in CD-1 mouse at 20 mg/kg, po measured after 7 hrs by LC-MS/MS analysis
- Type: ADME, organism-based
Provide the reading as a plain figure in ng/mL.

## Task Identify the reported concentration at 7 h for the following entry. CN1CCN(c2ccc(NC3=CC(=O)c4ncncc4C3=O)cc2)CC1
## Result 23.3

Moving on to another compound below.
## Task Identify the reported concentration at 7 h for the following entry. CC1=C(Nc2ccc(N3CCN(C)CC3)cc2)C(=O)c2cncnc2C1=O
## Result 3.4

* * *

- protocol.summary: Half life in mouse plasma at 500 uM by LC-MS/MS analysis
- Format: ADME, cell-free
readout.kind: half-life at 500 µM

## Task Identify the reported half-life at 500 µM for the following entry. CC1=C(Nc2ccc(N3CCN(C)CC3)cc2)C(=O)c2cncnc2C1=O
## Result > 2 h

* * *

- protocol.summary: Half life in human plasma at 500 uM by LC-MS/MS analysis
- Format: ADME, cell-free
readout.kind: half-life at 500 µM

## Task Identify the reported half-life at 500 µM for the following entry. CC1=C(Nc2ccc(N3CCN(C)CC3)cc2)C(=O)c2cncnc2C1=O
## Result > 2 h

* * *

- protocol.summary: Plasma concentration in CD-1 mouse at 10 mg/kg, ip measured after 7 hrs by LC-MS/MS analysis
- Assay type: ADME, organism-based
Recorded concentration at 7 h, one value per entry.
Provide the reading as a plain figure in ng/mL.

## Task Identify the reported concentration at 7 h for the following entry. CN1CCN(c2ccc(NC3=CC(=O)c4ncncc4C3=O)cc2)CC1
## Result 4.5

Moving on to another compound below.
## Task Identify the reported concentration at 7 h for the following entry. CC1=C(Nc2ccc(N3CCN(C)CC3)cc2)C(=O)c2cncnc2C1=O
## Result 6.7

* * *

- protocol.summary: Half life in mouse liver microsomes at 10 uM in presence of NADPH by LC-MS/MS analysis
- Type: ADME, Microsome
- reported.conditions: liver microsomes
readout.kind: half-life at 10 µM

## Task Identify the reported half-life at 10 µM for the following entry. CN1CCN(c2ccc(NC3=CC(=O)c4ncncc4C3=O)cc2)CC1
## Result > 1 h
